target: Cytochrome P450 2D6 (Homo sapiens); assay: Cytochrome panel assay with activity outcomes; conditions: recombinant CYP, pro-luciferin dealkylation, luminescence, p450-cyp2d6; series mostly up to 57.1 µM
The campaign covered roughly 16,000 compounds. About 2,600 (16%) were called active. Not shown: some 20% with an inconclusive outcome. Calls follow the shape of the dose curve; as a rule, active = well fitted curve in the direction sought with a large enough effect; inconclusive = small, poorly fitted or top-dose-only effect, or effect the other way; inactive = no such curve, though single readings can be large or run the other way. Only a sample is shown.
Answer with one of the outcomes given here: active, inactive

**Q:** Assay outcome for COC(=O)C1=C(N)Oc2cc(C)n(CC3CCCO3)c(=O)c2C1c1ccccc1OC (stereo unspecified) : what was it?
**A:** inactive

**Q:** Assay outcome for CC(C)Cc1nnc(NC(=O)c2ccc([N+](=O)[O-])cc2)s1 : what was it?
**A:** inactive

**Q:** Assay outcome for Cc1ccccc1/C=N\NC(=O)c1csnn1 : what was it?
**A:** inactive
